# Protocol summary: Aqueous solubility at 25° C.
# Type: physicochemical
# Particulars: fassgf or other biorelevant, Aqueous solubility (simulated intestinal fluid)
Measurement type: solubility (µM)
Provide only the numeric value, understood in µM.

query: Give its solubility value. Item: "O=C1N(CCS(=O)(=O)c2ccccc2)Cc2ccccc2[C@@H]2OC(c3ccc(OCCCO)cc3)=N[C@]12Cc1ccccc1"
result: 200

###

# System: ST-486
# Protocol summary: Viability assay in ST-486
# Format: cell-based
# Particulars: Homo sapiens, ST486; ST-486, non-engineered cell line
Measurement type: IC50 (µM)
Provide only the numeric value, understood in µM.

query: Give its IC50 value. Item: O=C1N(CCS(=O)(=O)c2ccccc2)Cc2ccccc2[C@@H]2OC(c3ccccc3)=N[C@]12Cc1ccccc1 [KI-MS2-008]
result: 18.7
